condition_label: in n-octane, 297.15 K
Reported solubility (mole fraction) values are given for each entry in this list.
Just the number, please, no unit after it.

CC(=O)c1ccc2ccc(C)cc2c1 ... 0.000387

Next item in the queue.
Provide only the value of recorded solubility (mole fraction) for CC(=O)c1ccc2cc(C)ccc2c1
0.029

----------
condition_label: in n-heptane, 289.15 K
measure_name: solubility (mole fraction)
Just the number, please, no unit after it.

Provide only the value of recorded solubility (mole fraction) for CC(=O)c1ccc2ccc(C)cc2c1
0.000268

----------
condition_label: in n-dodecane, 299.15 K
measure_name: solubility (mole fraction)
Just the number, please, no unit after it.

Provide only the value of recorded solubility (mole fraction) for CC(=O)c1ccc2cc(C)ccc2c1
0.0339

----------
condition_label: in n-dodecane, 305.15 K
measure_name: solubility (mole fraction)

Provide only the value of recorded solubility (mole fraction) for CC(=O)c1ccc2cc(C)ccc2c1
0.046

----------
condition_label: in n-octane, 306.65 K
measure_name: solubility (mole fraction)
Just the number, please, no unit after it.

Provide only the value of recorded solubility (mole fraction) for CC(=O)c1ccc2cc(C)ccc2c1
0.0487

----------
condition_label: in n-octane, 292.15 K
measure_name: solubility (mole fraction)
Just the number, please, no unit after it.

Provide only the value of recorded solubility (mole fraction) for CC(=O)c1ccc2ccc(C)cc2c1
0.000291

----------
condition_label: in n-octane, 281.15 K
measure_name: solubility (mole fraction)
Just the number, please, no unit after it.

Provide only the value of recorded solubility (mole fraction) for CC(=O)c1ccc2ccc(C)cc2c1
0.000172

----------
condition_label: in n-dodecane, 291.15 K
measure_name: solubility (mole fraction)
Just the number, please, no unit after it.

Provide only the value of recorded solubility (mole fraction) for CC(=O)c1ccc2cc(C)ccc2c1
0.022

----------
condition_label: in n-octane, 284.15 K
measure_name: solubility (mole fraction)
Just the number, please, no unit after it.

Provide only the value of recorded solubility (mole fraction) for CC(=O)c1ccc2ccc(C)cc2c1
0.000194

----------
condition_label: in n-heptane, 306.15 K
measure_name: solubility (mole fraction)
Just the number, please, no unit after it.

Provide only the value of recorded solubility (mole fraction) for CC(=O)c1ccc2cc(C)ccc2c1
0.0484

----------
condition_label: in n-heptane, 285.15 K
measure_name: solubility (mole fraction)
Just the number, please, no unit after it.

Provide only the value of recorded solubility (mole fraction) for CC(=O)c1ccc2cc(C)ccc2c1
0.0151

----------
Reported solubility (mole fraction) values are given for each entry in this list.
condition_label: in n-heptane, 277.15 K

Provide only the value of recorded solubility (mole fraction) for CC(=O)c1ccc2ccc(C)cc2c1
0.000138

Provide only the value of recorded solubility (mole fraction) for CC(=O)c1ccc2cc(C)ccc2c1
0.0104

----------
condition_label: in n-dodecane, 308.15 K
measure_name: solubility (mole fraction)
Just the number, please, no unit after it.

Provide only the value of recorded solubility (mole fraction) for CC(=O)c1ccc2cc(C)ccc2c1
0.0535

----------
condition_label: in n-heptane, 275.15 K
measure_name: solubility (mole fraction)
Just the number, please, no unit after it.

Provide only the value of recorded solubility (mole fraction) for CC(=O)c1ccc2ccc(C)cc2c1
0.000124

----------
condition_label: in n-heptane, 273.15 K
measure_name: solubility (mole fraction)

Provide only the value of recorded solubility (mole fraction) for CC(=O)c1ccc2ccc(C)cc2c1
0.000115

Provide only the value of recorded solubility (mole fraction) for CC(=O)c1ccc2cc(C)ccc2c1
0.00938

----------
condition_label: in n-heptane, 303.15 K
measure_name: solubility (mole fraction)
Just the number, please, no unit after it.

Provide only the value of recorded solubility (mole fraction) for CC(=O)c1ccc2cc(C)ccc2c1
0.0428

----------
condition_label: in n-heptane, 311.15 K
measure_name: solubility (mole fraction)
Just the number, please, no unit after it.

Provide only the value of recorded solubility (mole fraction) for CC(=O)c1ccc2cc(C)ccc2c1
0.0629

----------
condition_label: in n-dodecane, 301.65 K
measure_name: solubility (mole fraction)
Just the number, please, no unit after it.

Provide only the value of recorded solubility (mole fraction) for CC(=O)c1ccc2cc(C)ccc2c1
0.037

----------
condition_label: in n-dodecane, 292.15 K
measure_name: solubility (mole fraction)
Just the number, please, no unit after it.

Provide only the value of recorded solubility (mole fraction) for CC(=O)c1ccc2ccc(C)cc2c1
0.000339

----------
condition_label: in n-octane, 295.15 K
measure_name: solubility (mole fraction)
Just the number, please, no unit after it.

Provide only the value of recorded solubility (mole fraction) for CC(=O)c1ccc2ccc(C)cc2c1
0.000343

----------
condition_label: in n-dodecane, 300.15 K
measure_name: solubility (mole fraction)
Just the number, please, no unit after it.

Provide only the value of recorded solubility (mole fraction) for CC(=O)c1ccc2ccc(C)cc2c1
0.000526

----------
condition_label: in n-octane, 277.65 K
measure_name: solubility (mole fraction)
Just the number, please, no unit after it.

Provide only the value of recorded solubility (mole fraction) for CC(=O)c1ccc2cc(C)ccc2c1
0.0105

----------
condition_label: in n-heptane, 294.15 K
measure_name: solubility (mole fraction)
Just the number, please, no unit after it.

Provide only the value of recorded solubility (mole fraction) for CC(=O)c1ccc2cc(C)ccc2c1
0.0258

----------
condition_label: in n-heptane, 286.15 K
measure_name: solubility (mole fraction)
Just the number, please, no unit after it.

Provide only the value of recorded solubility (mole fraction) for CC(=O)c1ccc2ccc(C)cc2c1
0.000228

----------
condition_label: in n-heptane, 288.15 K
measure_name: solubility (mole fraction)
Just the number, please, no unit after it.

Provide only the value of recorded solubility (mole fraction) for CC(=O)c1ccc2cc(C)ccc2c1
0.0177

----------
condition_label: in n-dodecane, 278.15 K
measure_name: solubility (mole fraction)
Just the number, please, no unit after it.

Provide only the value of recorded solubility (mole fraction) for CC(=O)c1ccc2ccc(C)cc2c1
0.000158

----------
Reported solubility (mole fraction) values are given for each entry in this list.
condition_label: in n-heptane, 279.15 K
Just the number, please, no unit after it.

CC(=O)c1ccc2ccc(C)cc2c1 ... 0.000157

Next item in the queue.
Provide only the value of recorded solubility (mole fraction) for CC(=O)c1ccc2cc(C)ccc2c1
0.0114

----------
condition_label: in n-octane, 291.15 K
measure_name: solubility (mole fraction)
Just the number, please, no unit after it.

Provide only the value of recorded solubility (mole fraction) for CC(=O)c1ccc2cc(C)ccc2c1
0.0211

----------
condition_label: in n-octane, 289.15 K
measure_name: solubility (mole fraction)
Just the number, please, no unit after it.

Provide only the value of recorded solubility (mole fraction) for CC(=O)c1ccc2ccc(C)cc2c1
0.000254

----------
condition_label: in n-octane, 276.15 K
measure_name: solubility (mole fraction)
Just the number, please, no unit after it.

Provide only the value of recorded solubility (mole fraction) for CC(=O)c1ccc2ccc(C)cc2c1
0.00013

----------
condition_label: in n-octane, 319.15 K
measure_name: solubility (mole fraction)
Just the number, please, no unit after it.

Provide only the value of recorded solubility (mole fraction) for CC(=O)c1ccc2cc(C)ccc2c1
0.106

----------
condition_label: in n-octane, 279.15 K
measure_name: solubility (mole fraction)
Just the number, please, no unit after it.

Provide only the value of recorded solubility (mole fraction) for CC(=O)c1ccc2ccc(C)cc2c1
0.000152

----------
condition_label: in n-octane, 301.15 K
measure_name: solubility (mole fraction)
Just the number, please, no unit after it.

Provide only the value of recorded solubility (mole fraction) for CC(=O)c1ccc2cc(C)ccc2c1
0.0371

----------
condition_label: in n-dodecane, 296.65 K
measure_name: solubility (mole fraction)
Just the number, please, no unit after it.

Provide only the value of recorded solubility (mole fraction) for CC(=O)c1ccc2cc(C)ccc2c1
0.0291

----------
condition_label: in n-heptane, 319.15 K
measure_name: solubility (mole fraction)
Just the number, please, no unit after it.

Provide only the value of recorded solubility (mole fraction) for CC(=O)c1ccc2cc(C)ccc2c1
0.105

----------
condition_label: in n-octane, 273.15 K
measure_name: solubility (mole fraction)
Just the number, please, no unit after it.

CC(=O)c1ccc2ccc(C)cc2c1 ... 0.000114

Next item in the queue.
Provide only the value of recorded solubility (mole fraction) for CC(=O)c1ccc2cc(C)ccc2c1
0.00895
